Data origin, for the record: the supplement of paper PMC4862054

Test system: MDA-MB-468
Assay Procedure: drug sensitivity score (DSS), CellTiter-Blue viability (DSS (AUC-based score)); higher = stronger viability inhibition; extreme values may be limits of the assay
Applied Conditions: incubation time: 72 h
Measured drug sensitivity score accompanies every entry in the list below.

Here are 5 molecules together with their reported answers.
I'm curious: which drug sensitivity score was measured for "COc1cccc2c1C(=O)c1c(O)c3c(c(O)c1C2=O)C[C@@](O)(C(C)=O)C[C@@H]3O[C@H]1C[C@H](N)[C@H](O)[C@H](C)O1" tested on MDA-MB-468?
11.1

Test system MDA-MB-468; read-out drug sensitivity score; what value for "O=c1[nH]cc(F)c(=O)[nH]1" ?
0.272

Write down the reported drug sensitivity score of "COc1ccc(C2=N[C@@H](c3ccc(Cl)cc3)[C@@H](c3ccc(Cl)cc3)N2C(=O)N2CCNC(=O)C2)c(OC(C)C)c1" , test system: MDA-MB-468.
0

Return drug sensitivity score measured with MDA-MB-468 given this molecule: "CN1CCN(c2ccc3nc(-c4c(N)c5c(F)cccc5[nH]c4=O)[nH]c3c2)CC1"
0

# returns recorded drug sensitivity score (system: MDA-MB-468) for "COC1=CC(c2cc3ccccc3[nH]2)=N/C1=C\c1[nH]c(C)cc1C"
16.6

***
Recorded drug sensitivity score for "Cn1c(=O)c(F)c(Nc2ccc(I)cc2F)c2c(=O)n(C[C@@H](O)CO)cnc21" with MDA-MB-468, please?
0

Hi! What's the reported drug sensitivity score for "CS(=O)(=O)OCCCCOS(C)(=O)=O" on MDA-MB-468?
0

* * *

Test system: CAL-148
Assay Procedure: normalised viability (% of control), CellTiter-Blue; higher = more viable cells (about 100 = DMSO control)
Applied Conditions: 3 nM; incubation time: 72 h
Measure Name: normalised viability (%)
# number only, unit % dropped from output

I'd like to know its normalised viability. The molecule in question is CN1CCN(c2ccc3nc(-c4c(N)c5c(F)cccc5[nH]c4=O)[nH]c3c2)CC1 [Dovitinib]
91.6

Please report the recorded normalised viability for CC(C)C[C@H](NC(=O)[C@H](Cc1ccccc1)NC(=O)c1cnccn1)B(O)O [Bortezomib] .
89

Lab note: next molecule to report on.
Look up normalised viability for this molecule: C#Cc1cccc(Nc2ncnc3cc(OC)c(OCCCCCCC(=O)NO)cc23)c1 [CUDC-101]
90.4

* * *

System: CAL-51
Assay Procedure: normalised response (% of control), CellTiter-Glo; higher = more viable cells (100 = DMSO, 0 = benzethonium chloride kill control)
Applied Conditions: incubation time: 72 h
normalised response by entry:
Express the result in % but write the number alone.

Sample records with normalised response:
Which normalised response reading was recorded for the compound O=C(c1ccc(OCCN2CCCCC2)cc1)c1c(-c2ccc(O)cc2)sc2cc(O)ccc12 [Raloxifene] (100 nM) ?
87.8

I'd like to know its normalised response. The compound in question is CC(C)C[C@H](NC(=O)[C@H](Cc1ccccc1)NC(=O)c1cnccn1)B(O)O [Bortezomib] (10 nM)
96.8

Alright, here's another compound for you.
Return reported normalised response; argument: Cn1cnc2c(F)c(Nc3ccc(Br)cc3F)c(C(=O)NOCCO)cc21 [MEK-162] (10 nM)
114

* * *

Documented normalised response across a set of molecules
Test system: CAL-51
Assay Procedure: normalised response (% of control), CellTiter-Glo; higher = more viable cells (100 = DMSO, 0 = benzethonium chloride kill control)
Applied Conditions: incubation time: 72 h
A number alone suffices; assume %.

Use these answered entries as a reference point.
# input molecule: CCCC(CCC)C(=O)O [Valproic acid] (100 nM) ; wanted: its normalised response
103

I have this molecule here, Nc1nccc(-c2c(-c3ccc(F)cc3)ncn2C2CCCCC2)n1 (10 nM) , and I need its recorded normalised response.
104

Quick one: normalised response of O=c1[nH]c(=O)n([C@H]2C[C@H](O)[C@@H](CO)O2)cc1F [Floxuridine] (10 nM) ?
122

Given the entry C[C@@H]1CCN(C(=O)CC#N)C[C@@H]1N(C)c1ncnc2[nH]ccc12 [Tofacitinib] (0.5 nM) , report its measured normalised response.
71.3

What measured normalised response goes with O=c1[nH]cc(F)c(=O)[nH]1 [Fluorouracil] (1000 nM) ?
110

Others:
Value lookup for normalised response; key = CCOc1cc2ncc(C#N)c(Nc3ccc(OCc4ccccn4)c(Cl)c3)c2cc1NC(=O)/C=C/CN(C)C [Neratinib] (1 nM)
80

I would be grateful if you could share the reported normalised response for CN(c1ccccc1CNc1nc(Nc2ccc3c(c2)CC(=O)N3)ncc1C(F)(F)F)S(C)(=O)=O (1000 nM) .
53.6
